Post-emergence action against LOLRI values for the molecules below.
Test system: Lolium rigidum
MEASUREMENT_PROTOCOL: Post-emergence herbicidal effect against LOLRI
Format: in vivo
REPORTED_CONDITIONS: 80 g/ha, visual assessment after about 3 weeks
Output spec: scalar in %, unitless text.

{"MOLECULE": "CCOC(=O)OC1=C(c2c(C)cc(Cl)cc2OC)C(=O)NC12COC1(CCOCC1)OC2", "ASSAY_VALUE": 90}
{"MOLECULE": "COc1cc(C)cc(C)c1C1=C([O-])C2(COC3(CCOCC3)OC2)N(C)C1=O.[Na+]", "ASSAY_VALUE": 90}
{"MOLECULE": "CCC(=O)OC1=C(c2c(C)cc(C)cc2OC)C(=O)NC12COC1(CCOCC1)OC2", "ASSAY_VALUE": 100}
{"MOLECULE": "COc1cc(C)cc(C)c1C1=C(O)C2(COC3(CCOCC3)OC2)NC1=O", "ASSAY_VALUE": 100}
{"MOLECULE": "CCC(=O)OC1=C(c2c(C)cc(Cl)cc2OC)C(=O)NC12COC1(CCOCC1)OC2", "ASSAY_VALUE": 100}

Tell me the measured Post-emergence action against LOLRI of CCOC(=O)OC1=C(c2c(C)cc(C)cc2OC)C(=O)N(C)C12COC1(CCOCC1)OC2 , please.
90

I would be grateful if you could share the reported Post-emergence action against LOLRI for COc1cc(C)cc(C)c1C1=C([O-])C2(COC3(CCOCC3)OC2)NC1=O.[Na+] .
100

Can you share its Post-emergence action against LOLRI? I mean this molecule: COc1cc(Cl)cc(C)c1C1=C(O)C2(COC3(CCOCC3)OC2)NC1=O [Example 2-4]
90

Entry CCOC(=O)OC1=C(c2c(C)cc(C)cc2OC)C(=O)NC12COC1(CCOCC1)OC2 has what Post-emergence action against LOLRI?
100

Item COc1cc(Cl)cc(C)c1C1=C(O)C2(COC3(CCOCC3)OC2)NC1=O [Example 1-4] has what recorded Post-emergence action against LOLRI?
100

Value lookup for Post-emergence action against LOLRI; key = COc1cc(C)cc(C)c1C1=C(O)C2(COC3(CCOCC3)OC2)N(C)C1=O
90

---

System: Digitaria sanguinalis
MEASUREMENT_PROTOCOL: Post-emergence herbicidal effect against DIGSA
Format: in vivo
REPORTED_CONDITIONS: 20 g/ha, visual assessment after about 3 weeks, 100% = plants have died
ASSAY_METRIC: Post-emergence action against DIGSA

Use these answered entries as a reference point.
{"MOLECULE": "COc1cc(Cl)cc(C)c1C1=C(O)C2(COC3(CCOCC3)OC2)NC1=O [Example 1-4]", "Post-emergence action against DIGSA": "80%"}
{"MOLECULE": "CCC(=O)OC1=C(c2c(C)cc(C)cc2OC)C(=O)NC12COC1(CCOCC1)OC2", "Post-emergence action against DIGSA": "90%"}
{"MOLECULE": "COc1cc(C)cc(C)c1C1=C(O)C2(COC3(CCOCC3)OC2)NC1=O", "Post-emergence action against DIGSA": "100%"}

// moving on: another record for Post-emergence action against DIGSA
Fill in: Post-emergence action against DIGSA of CCC(=O)OC1=C(c2c(C)cc(Cl)cc2OC)C(=O)NC12COC1(CCOCC1)OC2 is ___
100%
